Test system: SF-295
Assay details: NCI tumour cell line growth inhibition, 48 h
Activity calls are given as the source filed them. No stated cut-off is given here; in the data, active = GI50 up to about 1.1 µM and inactive = higher.
Property name: GI50

Compound	Experimental result
C#CCOCn1cnc2c(Cl)ncnc21	> 100 µM (inactive)
CN(C)c1ccc(N=O)c(O)c1.CN(C)c1ccc(N=O)c(O)c1.[SiH4]	14.3 µM (inactive)
Cc1cccc2c(N)c3cccc(C(=O)NCC[N+](C)(C)Cc4ccc([N+](=O)[O-])n4C)c3nc12	17.6 µM (inactive)
COc1ccc(/C(CC2OC(=O)c3ccccc32)=N\NC(N)=O)cc1 (stereo unspecified)	> 100 µM (inactive)
Cc1cc(NC[C@H](O)[C@H](O)[C@H](O)CO)c(Sc2cc(=O)[nH]c(=O)[nH]2)cc1C	> 62.5 µM (inactive)
C=C(CCCO)[C@@H]1CC[C@@](C)(O)[C@H]1C	> 100 µM (inactive)
Cc1cc(=O)nc(S(=O)(=O)NC(=S)Nc2ccc(Br)cc2)[nH]1	> 100 µM (inactive)
CN(C)CC1CCC/C1=N\O (stereo unspecified)	> 100 µM (inactive)
CC1(CCc2ccccc2)CC1(Br)Br (stereo unspecified)	25.4 µM (inactive)
CC(=O)OCC1OC(n2c(-c3ccc(N)cc3)cc(-c3ccco3)c(C#N)c2=O)C(OC(C)=O)C(OC(C)=O)C1OC(C)=O (stereo unspecified)	28 µM (inactive)
CN(C)CCOC(=O)c1ccc(N)cc1	47.8 µM (inactive)
Cc1ccc(S(=O)(=O)NNC2Oc3cc4c(cc3C(c3ccccc3O)C2C)OCO4)cc1 (stereo unspecified)	11.6 µM (inactive)
Nc1nc(SCC(=O)c2ccc(Br)cc2)c2nc[nH]c2n1	34.8 µM (inactive)
CN(C)C(=O)NC(=S)N(C)C	> 100 µM (inactive)
CC1C(NNC(N)=O)Oc2cc3c(cc2C1c1ccccc1O)OCO3 (stereo unspecified)	27 µM (inactive)
O=S(=O)(Cc1cnc(O)nc1O)Cc1cnc(O)nc1O	> 100 µM (inactive)

---

System: Malme-3M
Assay details: NCI tumour cell line growth inhibition, 48 h
Calls of active or inactive are those of the source. Rule as the data show it: active = GI50 up to about 1.1 µM and inactive = higher. Starred links: 1 amine or outer side, 2 acyl side, 3 side chain; linkers in the order of their positions; H or OH if unused. Positions of bridges follow the written chain, without caps; N, C: chain ends. Non-standard residues stand in square brackets, D forms with d. Residues, ends and D or L forms follow the SMILES beside them. ξ: configuration not given here. *: point of attachment. γ4hArg(2R,3R-(OH)2) = N=C(N)NCCC[C@H](N[*:1])[C@@H](O)[C@@H](O)C(=O)[*:2]; Gln(3S,4R-Me2) = C[C@H]([C@H](N)C(=O)O)[C@@H](C)C(N)=O; X50 = CC(C)C[C@H](C)[C@@H](O)[C@@H](C)C(=O)*; X51 = COC(c1ccc(O)cc1)C(N[*:1])C(=O)[*:2]; NMeQ = CN[C@@H](CCC(N)=O)C(=O)O; Thr(3ξ) = CC(O)[C@H](N)C(=O)O; NMeA = CN[C@@H](C)C(=O)O
Outcomes: class 1 for active, class 0 for inactive

Molecule	Qualitative label
C=C1C(=O)OC2C1CCC(C)C1(O)C=CC(=O)C21C (centres undefined)	class 0
Cc1nn(C(=O)Cc2ccccc2)c2c1C(c1ccc(N(C)C)cc1)SC(=N)N2 (centres undefined)	class 0
O=c1[nH]c(=O)c2ncn(-c3ccc([N+](=O)[O-])cn3)c2[nH]1	class 0
O=C(CCCN1CCc2[nH]c3cc(F)ccc3c2C1)c1ccc(F)cc1	class 0
COc1ccc(/C=C/c2ccnc3ccccc23)cc1OC	class 0
CC(=O)N(O)c1ccc(-c2nc3ccccc3s2)cc1	class 0
COC(=O)C(CCC(=O)CCl)N1C(=O)c2ccccc2C1=O (centres undefined)	class 0
CC(C)(C)c1cc(/C=C(\C#N)C(=O)NCCO)cc(C(C)(C)C)c1O	class 0
CN(C)/N=C/c1cn(C)c(=O)n(C)c1=O	class 0
COC(c1ccc(O)cc1)C1NC(=O)[C@H](CCC(N)=O)N(C)C(=O)[C@H](CC(C)C)NC(=O)[C@@H](CCCN=C(N)N)NC(=O)[C@H](C(C)O)NC(=O)[C@@H](NC(=O)[C@@H](NC(=O)[C@H](O)[C@H](O)[C@H](CCCN=C(N)N)NC(=O)[C@H](C)NC(=O)[C@H](C)[C@H](O)[C@@H](C)CC(C)C)[C@@H](C)[C@@H](C)C(N)=O)[C@@H](C)OC(=O)[C@H](C)N(C)C1=O (stereo partly drawn) (X50-A[γ4hArg(2R,3R-(OH)2)][Gln(3S,4R-Me2)]T[Thr(3ξ)][dR]L[NMeQ][X51][NMeA]; ester 4-C)	class 1
Cc1cccc2c(N)c3cccc(C(=O)NCC[N+](C)(C)Cc4ccc([N+](=O)[O-])n4C)c3nc12	class 0
Cc1ccnc2c1c(=O)c1ccccc1n2C	class 0
CNC(=S)NC1CCCCC1NC(=S)NC (centres undefined)	class 0
O=C(Cc1nc2ccccc2o1)C(=O)Nc1ccc(Cl)cc1Cl	class 0
C[N+](C)(C)C(Cc1c[nH]c(=S)[nH]1)C(=O)O (centres undefined)	class 0
CS/C(=N/C(=O)c1ccccc1)SCCS/C(=N\C(=O)c1ccccc1)SC	class 0
COc1cc2c(cc1OC)C1CN3C(=O)CCC3C(O)C1c1cc(OC)c(OC)cc1-2 (centres undefined)	class 0
C=CCN1C(=O)/C(=C\c2cc(C(C)(C)C)c(O)c(C(C)(C)C)c2)NC1=S	class 0
COc1cccc2c1CCc1cc3c(N)nc(N)nc3nc1-2	class 0
CCOC(=O)c1ccc(C(=O)/C(C#N)=C2\CCCN2C)[nH]1	class 0
O=S(=O)(O)C(c1ccccc1)C(O)c1ccccc1 (centres undefined)	class 0
CC[N+](C)(CC)CCC(O)(c1ccccc1)c1ccccc1	class 0
CC(CC(=O)O)C(C(=O)O)C(=O)O (centres undefined)	class 0
CC1N(C)C(=O)OC12CCN(CCCC(=O)c1ccc(F)cc1)CC2 (centres undefined)	class 0
CC(C)(C)OC(=O)N(O)[C@@H]1C=C[C@H](n2cnc3c(N)ncnc32)C1	class 0
CC1(C)Cc2ccccc2C(C)(Cl)C(=O)N1 (centres undefined)	class 0
CCCNC(C#N)c1ccc(OCCCCCCCCCCOc2ccc(C(C#N)NCCC)cc2)cc1 (centres undefined)	class 0
COc1cccc(CCN2CCN(CCCc3ccccc3)CC2)c1	class 0
COc1cc(/C=N/N=C2NCCCN2)ccc1O	class 0
C/C(C=O)=C1\C(O)C[C@]1(C)C1CC(C)(C)CC1O (some centres undefined)	class 0
COc1cc(Nc2nnc3n2S(=O)(=O)c2cc(C)c(Cl)cc2S3)cc(OC)c1	class 0
CCCCCCC(=O)C/C(CCC(=O)N(Cc1ccccc1)Cc1ccccc1)=N\NC(N)=O	class 0
COC(=O)C1=C(c2cc(OC)c(OC)c(OC)c2)OC(c2ccc3c(c2)OCO3)C1 (centres undefined)	class 0
Fc1cccc(F)c1C1SCc2nc3ccc(Cl)cc3n21 (centres undefined)	class 0
